assay: Phase I clinical trial Part A: pharmacokinetics; format: in vivo; settings: male, human, plasma, po, 400 mg, 400 mg single oral dose; healthy male subjects; read-out: Cmax (Mean ± SD, ng/mL)
measured metric: Cmax (ng/mL)
Your answer is read as ng/mL, so omit the unit and give the number.

Problem: Return the recorded Cmax value; entry: C[C@H](Oc1ccc(Br)cc1-c1ccon1)C(=O)O
Solution: 20100

----------
assay: Phase IIA clinical trial (Part C): pharmacokinetics in patients; format: in vivo; details: both sexes, human, plasma, 1200 mg single oral dose, read-out: AUC0-infinity (Mean ± SD, h · ng/mL)
measured metric: AUC(0-inf) (µg·h/mL)
State just the number; it will be interpreted in µg·h/mL.

Problem: Report AUC(0-inf) for C[C@H](Oc1ccc(Br)cc1-c1ccon1)C(=O)O
Solution: 378

The reported numbers originate from patent US20260102377A1.
